For each record, write down the corresponding log10 TGI.
test system: UACC-257 melanoma; assay: NCI tumour cell line growth inhibition, 48 h
Note the log scale: values are log10 of TGI expressed in µM.

**Query** Report value: log10 TGI, system: UACC-257 melanoma, compound: CCN(CC)CCN1c2ccccc2Sc2ccc3ccccc3c21
**Result** 1.33

**Query** Report value: log10 TGI, system: UACC-257 melanoma, compound: CN(C)CCNC(=O)c1cccc2nc3ccc4ccccc4c3nc12
**Result** -0.27

**Query** Report value: log10 TGI, system: UACC-257 melanoma, compound: C/C=C/C=N/N(c1nnc(-c2ccccc2)c(-c2ccccc2)n1)S(=O)(=O)c1ccc(C)cc1
**Result** 1.32

**Query** Report value: log10 TGI, system: UACC-257 melanoma, compound: CCN(CC)CCn1ncc2ccc3c(c(=O)c4cccnc4n3CCN(CC)CC)c21
**Result** 0.60

**Query** Report value: log10 TGI, system: UACC-257 melanoma, compound: COC(=O)[C@]12CC[C@@H](C)[C@H](C)[C@@H]1C1=CC[C@@H]3[C@@]4(C)C[C@@H](OC(=O)c5ccco5)[C@H](O)[C@@](C)(CO)[C@@H]4[C@H](O)C[C@@]3(C)[C@]1(C)CC2
**Result** 0.88

**Query** Report value: log10 TGI, system: UACC-257 melanoma, compound: Cc1c2ccccc2c(C)c2c3c(ccc12)C(=O)C=CC3=O
**Result** 1.62

**Query** Report value: log10 TGI, system: UACC-257 melanoma, compound: Cc1cccc2c1Oc1cc(Cl)ccc1C2NC(=O)CCN1CCCCC1 (stereo not given)
**Result** 1.48

**Query** Report value: log10 TGI, system: UACC-257 melanoma, compound: CC/C(=N\Nc1nc2ccccc2n1C)c1ccccn1
**Result** 0.42

**Query** Report value: log10 TGI, system: UACC-257 melanoma, compound: CC(C)(C)OC(=O)N1C(C2=COc3ccccc3O2)=COc2ccccc21
**Result** 1.89

**Query** Report value: log10 TGI, system: UACC-257 melanoma, compound: CCCCc1ccc(Nc2nc3c(ncn3C3OC(COC(C)=O)C(OC(C)=O)C3OC(C)=O)c(=O)[nH]2)cc1 (stereo not given)
**Result** 1.54

* * *

For each record, write down the corresponding TGI.
test system: HOP-62 NSCLC; assay: NCI tumour cell line growth inhibition, 48 h

**Query** Please give the documented TGI of COc1cc2c(cc1OCCCCNC(=O)c1cc3ccccc3[nH]1)N=CC1CCCN1C2=O (stereo not drawn)
**Result** > 100 µM

**Query** Please give the documented TGI of CC(C)c1cc(C(C)C)c(S(=O)(=O)NN)c(C(C)C)c1
**Result** > 100 µM

**Query** Please give the documented TGI of c1ccc(Cc2cccc3cc(-c4ccc(-c5ccccc5)cc4)[nH]c23)cc1
**Result** > 100 µM

* * *

For each record, write down the corresponding TGI.
test system: HOP-62 NSCLC; assay: NCI tumour cell line growth inhibition, 48 h

**Query** Please give the documented TGI of CC1C2Cc3ccc(O)cc3C1(C)CCN2C (centres undefined)
**Result** > 100 µM

**Query** Please give the documented TGI of O=C(c1cc2ccccc2[nH]1)C(O)(c1cc2ccccc2[nH]1)c1cc2ccccc2[nH]1
**Result** > 246 µM

**Query** Please give the documented TGI of Nc1nnc2nc(CC(=O)/C=C/c3ccccc3)c(=O)[nH]n12
**Result** > 100 µM

**Query** Please give the documented TGI of O=C(NC(=O)c1cn(CCN2CCNCC2)c(=O)[nH]c1=O)OCc1ccccc1
**Result** > 100 µM
